Kindly supply the reported Raji binding values for the records listed here.
STUDY_SYSTEM: T1, human CD84 on cells (human) (UniProt Q9UIB8)
T1 sequence (looked up): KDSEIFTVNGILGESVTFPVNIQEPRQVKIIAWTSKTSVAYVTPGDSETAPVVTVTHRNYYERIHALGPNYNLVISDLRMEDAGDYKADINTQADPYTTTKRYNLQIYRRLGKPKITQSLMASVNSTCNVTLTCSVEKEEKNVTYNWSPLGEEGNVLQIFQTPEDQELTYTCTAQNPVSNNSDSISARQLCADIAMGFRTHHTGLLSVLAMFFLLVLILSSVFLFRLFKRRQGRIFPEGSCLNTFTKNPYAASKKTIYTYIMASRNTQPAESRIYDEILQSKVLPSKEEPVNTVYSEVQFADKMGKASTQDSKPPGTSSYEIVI
ASSAY_OVERVIEW: flow cytometry, hybridoma supernatant at equal antibody concentration, Raji cells
Answers are plain numbers, in %.

Completed entries (count: 3):
1. GYCD84.2.27 (antibody, mouse IgG1, V domains shown) VH: QVTLKESGPGILQPSQTLSLTCSFSGFSLTTSGMGVGWIRQPSGKGLEWLAHIWWDDVKRYNPALKSRLTISKDTSSSQVFLKIASVDTADTASYYCARMSTSYYFDYWGQGTTLTVSS VL: DIVMTQSHKFMSTSLGDRVSISCKASQSLFTSVAWYQQKPGQSPKLLIYSASYRYTGVPDRFTGSGSGTDFTFTISSVQAEDLAVYYCQQHYSSPFTFGSGTKLGIK ... 97.5
2. GYCD84.3.298 (antibody, mouse IgG1, V domains shown) VH: QVTLKESGPGILQPSQTLSLTCSFSGFSLSTSGMGVGWIRQPSGKGLEWLAHIWWDDVKRYNPALRSRLTISKDTSSSQVFLNIASVDTADTATYYCTRIAVTYFFDFWGQGTTLTVSS VL: DIQMTQSPASLSASVGETVTITCRASENIFSSFAWYQQKRGRSPQLLVYNARTLAEGVPSRFSGSGSGTQFSLKINSLQPEDFGTYFCQHHYASPFTFGSGTELGVK ... 45.9
3. 152-1D5 (antibody, mouse IgG1, V domains shown) VH: QVQLQQPGAEVVQPGTSVKLSCKASGYNFTNYWINWVKLRPGQGLEWIGDIYPVSGTTNYNEKFKRKATLTVDTSSSTGNMQLSSLASEDSALYYCASGTGRFAYWGQGTLVTVSA VL: DIVLTQSPASLAVSLGQRATISCRASQSVSTSSYSYMHWYQQKPGQPPKLLIKFASNLESGVPARFSGSGSGTDFTLNIHPVEEEDTATYYCQHSWEIPYTFGGGTKLEIK ... 97.6

Read the next record carefully.
Please report the recorded Raji binding for GYCD84.3.89 (antibody, mouse IgG1, V domains shown) VH: EVKLLESGGGLVQPGGSLKLSCAASGFGFSRSWMSWVRQAPGKGLEWIGEINPDSSTINYTPSLKDKFIISRDNAKNTLFLQMSKVRSEDTALYYCATFYDGYSIYWYFDVWGAGTTVTVSS VL: DVLMTQTPLSLPVSLGDQASISCRSSQSIVHSNGDTYLEWYLQKPGQSPKLLIYKVSNRFSGVPDRFSGSGSGTDFTLKISRVEAEDLGVYYCFQGSHVPRTFGGGTKLEIK . 99.1
